target.system: Gap junction alpha-1 protein (Homo sapiens) (UniProt P17302)
Sequence (P17302 whole entry): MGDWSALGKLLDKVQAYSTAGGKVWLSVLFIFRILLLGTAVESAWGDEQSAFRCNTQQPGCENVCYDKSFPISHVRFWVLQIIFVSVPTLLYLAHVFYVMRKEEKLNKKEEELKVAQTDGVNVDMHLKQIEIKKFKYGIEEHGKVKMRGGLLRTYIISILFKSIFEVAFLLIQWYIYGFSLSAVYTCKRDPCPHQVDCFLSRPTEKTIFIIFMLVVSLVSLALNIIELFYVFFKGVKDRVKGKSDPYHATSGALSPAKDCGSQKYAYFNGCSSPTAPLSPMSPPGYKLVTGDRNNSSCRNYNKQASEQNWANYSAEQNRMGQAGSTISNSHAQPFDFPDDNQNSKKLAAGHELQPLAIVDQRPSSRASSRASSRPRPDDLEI
procedure.details: Inhibition of Cx43 in hypoxic-acidic ion-shifted ringers solution-induced human cerebral microvascular endothelial cell model of ischaemic injury assessed as ATP release at 10 uM measured after 2 hrs by luciferin-luciferase based luminescence assay relative to control
Calls of active or inactive are those of the source. The rule behind the calls is not given here. Where a SMILES comes first, the peptide text is derived from it. [ ]: non-standard residue; d: D form. The star is where a group is joined. Ethyl(2-stearoyloxy) = CCCCCCCCCCCCCCCCCC(=O)OCC*; Ethyl(2-palmitoyloxy) = CCCCCCCCCCCCCCCC(=O)OCC*; CH2CH2OBz(4-tBu) = CC(C)(C)c1ccc(C(=O)OCC*)cc1; Ethyl(2-decanoyloxy) = CCCCCCCCCC(=O)OCC*; Ethyl(2-OPiv) = CC(C)(C)C(=O)OCC*; Mpa = O=C(O)CCS
property.label: Activity

Completed entries (count: 6):
compound	Activity
CCCCCCCCCCCCCCCC(=O)OCCSC[C@H](NC(=O)[C@H](CS)NC(=O)[C@H](CC(=O)O)NC(=O)[C@@H](N)C(C)C)C(=O)N[C@@H](CC(C)C)C(=O)N[C@@H](CO)C(=O)N[C@@H](CCCNC(=N)N)C(=O)N1CCC[C@H]1C(=O)N[C@H](C(=O)N[C@@H](CCC(=O)O)C(=O)N[C@@H](CCCCN)C(=O)N[C@H](C(=O)O)[C@@H](C)O)[C@@H](C)O (H-VDCC(Ethyl(2-palmitoyloxy))LSRPTEKT-OH)	inactive
CCCCCCCCCCCCCCCC(=O)OCCSC[C@H](NC(=O)[C@H](CC(C)C)NC(=O)[C@H](Cc1ccccc1)NC(=O)[C@H](CS)NC(=O)[C@H](CC(=O)O)NC(=O)[C@@H](N)C(C)C)C(=O)N[C@@H](CCCNC(=N)N)C(=O)N1CCC[C@H]1C(=O)N[C@H](C(=O)N[C@@H](CCC(=O)O)C(=O)N[C@@H](CCCCN)C(=O)N[C@H](C(=O)O)[C@@H](C)O)[C@@H](C)O (H-VDCFLC(Ethyl(2-palmitoyloxy))RPTEKT-OH)	inactive
CC(C)C[C@H](NC(=O)[C@H](Cc1ccccc1)NC(=O)[C@H](CS)NC(=O)[C@H](CC(=O)O)NC(=O)[C@@H](N)C(C)C)C(=O)N[C@@H](CO)C(=O)N[C@@H](CCCNC(=N)N)C(=O)N1CCC[C@H]1C(=O)N[C@H](C(=O)N[C@@H](CSCCOC(=O)c1ccc(C(C)(C)C)cc1)C(=O)N[C@@H](CCCCN)C(=O)N[C@H](C(=O)O)[C@@H](C)O)[C@@H](C)O (H-VDCFLSRPTC(CH2CH2OBz(4-tBu))KT-OH)	inactive
CC(C)C[C@H](NC(=O)[C@H](Cc1ccccc1)NC(=O)[C@H](CS)NC(=O)[C@H](CC(=O)O)NC(=O)[C@@H](N)C(C)C)C(=O)N[C@@H](CSCCOC(=O)c1ccc(C(C)(C)C)cc1)C(=O)N[C@@H](CCCNC(=N)N)C(=O)N1CCC[C@H]1C(=O)N[C@H](C(=O)N[C@@H](CCC(=O)O)C(=O)N[C@@H](CCCCN)C(=O)N[C@H](C(=O)O)[C@@H](C)O)[C@@H](C)O (H-VDCFLC(CH2CH2OBz(4-tBu))RPTEKT-OH)	inactive
CC(C)C[C@H](NC(=O)[C@H](Cc1ccccc1)NC(=O)[C@H](CS)NC(=O)[C@H](CC(=O)O)NC(=O)[C@@H](N)C(C)C)C(=O)N[C@@H](CO)C(=O)N[C@@H](CCCNC(=N)N)C(=O)N1CCC[C@H]1C(=O)N[C@H](C(=O)N[C@@H](CCC(=O)O)C(=O)N[C@@H](CCCCN)C(=O)N[C@@H](CSCCOC(=O)C(C)(C)C)C(=O)O)[C@@H](C)O (H-VDCFLSRPTEKC(Ethyl(2-OPiv))-OH)	inactive
CC(C)C[C@H](NC(=O)[C@H](Cc1ccccc1)NC(=O)[C@H](CS)NC(=O)[C@H](CC(=O)O)NC(=O)[C@@H](NC(=O)CCSCCOC(=O)C(C)(C)C)C(C)C)C(=O)N[C@@H](CO)C(=O)N[C@@H](CCCNC(=N)N)C(=O)N1CCC[C@H]1C(=O)N[C@H](C(=O)N[C@@H](CCC(=O)O)C(=O)N[C@@H](CCCCN)C(=O)N[C@H](C(=O)O)[C@@H](C)O)[C@@H](C)O ([Mpa](Ethyl(2-OPiv))VDCFLSRPTEKT-OH)	inactive

Ask: Fill in the recorded Activity for this compound, with Gap junction alpha-1 protein (Homo sapiens) (UniProt P17302) as test system: CC(C)C[C@H](NC(=O)[C@H](Cc1ccccc1)NC(=O)[C@H](CS)NC(=O)[C@H](CC(=O)O)NC(=O)[C@@H](N)C(C)C)C(=O)N[C@@H](CO)C(=O)N[C@@H](CCCNC(=N)N)C(=O)N1CCC[C@H]1C(=O)N[C@H](C(=O)N[C@@H](CCC(=O)O)C(=O)N[C@@H](CCCCN)C(=O)N[C@H](C(=O)O)[C@@H](C)O)[C@@H](C)O (H-VDCFLSRPTEKT-OH)
Result: 53.8%

Ask: Try this compound next: CCCCCCCCCCCCCCCCCC(=O)OCCSC[C@H](NC(=O)[C@@H](NC(=O)[C@@H]1CCCN1C(=O)[C@H](CCCNC(=N)N)NC(=O)[C@H](CO)NC(=O)[C@H](CC(C)C)NC(=O)[C@H](Cc1ccccc1)NC(=O)[C@H](CS)NC(=O)[C@H](CC(=O)O)NC(=O)[C@@H](N)C(C)C)[C@@H](C)O)C(=O)N[C@@H](CCCCN)C(=O)N[C@H](C(=O)O)[C@@H](C)O (H-VDCFLSRPTC(Ethyl(2-stearoyloxy))KT-OH)
Result: 83.7%

Ask: Now consider CCCCCCCCCC(=O)OCCSC[C@H](NC(=O)[C@@H]1CCCN1C(=O)[C@H](CCCNC(=N)N)NC(=O)[C@H](CO)NC(=O)[C@H](CC(C)C)NC(=O)[C@H](Cc1ccccc1)NC(=O)[C@H](CS)NC(=O)[C@H](CC(=O)O)NC(=O)[C@@H](N)C(C)C)C(=O)N[C@@H](CCC(=O)O)C(=O)N[C@@H](CCCCN)C(=O)N[C@H](C(=O)O)[C@@H](C)O (H-VDCFLSRPC(Ethyl(2-decanoyloxy))EKT-OH) .
Result: inactive

Ask: Another compound: CC(C)C[C@H](NC(=O)[C@H](Cc1ccccc1)NC(=O)[C@H](CS)NC(=O)[C@H](CC(=O)O)NC(=O)[C@@H](N)C(C)C)C(=O)N[C@@H](CO)C(=O)N[C@@H](CCCNC(=N)N)C(=O)N1CCC[C@H]1C(=O)N[C@@H](CSCCOC(=O)C(C)(C)C)C(=O)N[C@@H](CCC(=O)O)C(=O)N[C@@H](CCCCN)C(=O)N[C@H](C(=O)O)[C@@H](C)O (H-VDCFLSRPC(Ethyl(2-OPiv))EKT-OH)
Result: inactive

---

target.system: UniProtKB P17302
procedure.details: Inhibition of Cx43 in hypoxic-acidic ion-shifted ringers solution-induced human cerebral microvascular endothelial cell model of ischaemic injury assessed as ATP release at 10 uM measured after 2 hrs by luciferin-luciferase based luminescence assay relative to control
Active and inactive are the calls of the source. No cut-off for these calls is given here. Where a SMILES comes first, the peptide text is derived from it. [ ]: non-standard residue; d: D form. The star is where a group is joined. Ethyl(2-stearoyloxy) = CCCCCCCCCCCCCCCCCC(=O)OCC*; Ethyl(2-palmitoyloxy) = CCCCCCCCCCCCCCCC(=O)OCC*; Ethyl(2-decanoyloxy) = CCCCCCCCCC(=O)OCC*; Ethyl(2-butanoyloxy) = CCCC(=O)OCC*; Ethyl(2-OPiv) = CC(C)(C)C(=O)OCC*; Mpa = O=C(O)CCS
property.label: Activity

Please review the entries below; each comes with its answer.
compound	Activity
CCCCCCCCCC(=O)OCCSC[C@H](NC(=O)[C@H](CS)NC(=O)[C@H](CC(=O)O)NC(=O)[C@@H](N)C(C)C)C(=O)N[C@@H](CC(C)C)C(=O)N[C@@H](CO)C(=O)N[C@@H](CCCNC(=N)N)C(=O)N1CCC[C@H]1C(=O)N[C@H](C(=O)N[C@@H](CCC(=O)O)C(=O)N[C@@H](CCCCN)C(=O)N[C@H](C(=O)O)[C@@H](C)O)[C@@H](C)O (H-VDCC(Ethyl(2-decanoyloxy))LSRPTEKT-OH)	inactive
CCCC(=O)OCCSC[C@H](NC(=O)[C@H](CC(C)C)NC(=O)[C@H](Cc1ccccc1)NC(=O)[C@H](CS)NC(=O)[C@H](CC(=O)O)NC(=O)[C@@H](N)C(C)C)C(=O)N[C@@H](CCCNC(=N)N)C(=O)N1CCC[C@H]1C(=O)N[C@H](C(=O)N[C@@H](CCC(=O)O)C(=O)N[C@@H](CCCCN)C(=O)N[C@H](C(=O)O)[C@@H](C)O)[C@@H](C)O (H-VDCFLC(Ethyl(2-butanoyloxy))RPTEKT-OH)	inactive
CCCCCCCCCCCCCCCCCC(=O)OCCSC[C@H](N)C(=O)N[C@@H](CC(=O)O)C(=O)N[C@@H](CS)C(=O)N[C@@H](Cc1ccccc1)C(=O)N[C@@H](CC(C)C)C(=O)N[C@@H](CO)C(=O)N[C@@H](CCCNC(=N)N)C(=O)N1CCC[C@H]1C(=O)N[C@H](C(=O)N[C@@H](CCC(=O)O)C(=O)N[C@@H](CCCCN)C(=O)N[C@H](C(=O)O)[C@@H](C)O)[C@@H](C)O (H-C(Ethyl(2-stearoyloxy))DCFLSRPTEKT-OH)	inactive
CCCC(=O)OCCSC[C@H](NC(=O)[C@H](CS)NC(=O)[C@H](CC(=O)O)NC(=O)[C@@H](N)C(C)C)C(=O)N[C@@H](CC(C)C)C(=O)N[C@@H](CO)C(=O)N[C@@H](CCCNC(=N)N)C(=O)N1CCC[C@H]1C(=O)N[C@H](C(=O)N[C@@H](CCC(=O)O)C(=O)N[C@@H](CCCCN)C(=O)N[C@H](C(=O)O)[C@@H](C)O)[C@@H](C)O (H-VDCC(Ethyl(2-butanoyloxy))LSRPTEKT-OH)	inactive
CCCC(=O)OCCSCCC(=O)N[C@H](C(=O)N[C@@H](CC(=O)O)C(=O)N[C@@H](CS)C(=O)N[C@@H](Cc1ccccc1)C(=O)N[C@@H](CC(C)C)C(=O)N[C@@H](CO)C(=O)N[C@@H](CCCNC(=N)N)C(=O)N1CCC[C@H]1C(=O)N[C@H](C(=O)N[C@@H](CCC(=O)O)C(=O)N[C@@H](CCCCN)C(=O)N[C@H](C(=O)O)[C@@H](C)O)[C@@H](C)O)C(C)C ([Mpa](Ethyl(2-butanoyloxy))VDCFLSRPTEKT-OH)	28.8%
CCCCCCCCCCCCCCCC(=O)OCCSC[C@H](N)C(=O)N[C@@H](CC(=O)O)C(=O)N[C@@H](CS)C(=O)N[C@@H](Cc1ccccc1)C(=O)N[C@@H](CC(C)C)C(=O)N[C@@H](CO)C(=O)N[C@@H](CCCNC(=N)N)C(=O)N1CCC[C@H]1C(=O)N[C@H](C(=O)N[C@@H](CCC(=O)O)C(=O)N[C@@H](CCCCN)C(=O)N[C@H](C(=O)O)[C@@H](C)O)[C@@H](C)O (H-C(Ethyl(2-palmitoyloxy))DCFLSRPTEKT-OH)	inactive
CC(C)C[C@H](NC(=O)[C@H](Cc1ccccc1)NC(=O)[C@H](CS)NC(=O)[C@H](CC(=O)O)NC(=O)[C@@H](N)CSCCOC(=O)C(C)(C)C)C(=O)N[C@@H](CO)C(=O)N[C@@H](CCCNC(=N)N)C(=O)N1CCC[C@H]1C(=O)N[C@H](C(=O)N[C@@H](CCC(=O)O)C(=O)N[C@@H](CCCCN)C(=O)N[C@H](C(=O)O)[C@@H](C)O)[C@@H](C)O (H-C(Ethyl(2-OPiv))DCFLSRPTEKT-OH)	inactive
CCCCCCCCCC(=O)OCCSC[C@H](NC(=O)[C@@H](NC(=O)[C@@H]1CCCN1C(=O)[C@H](CCCNC(=N)N)NC(=O)[C@H](CO)NC(=O)[C@H](CC(C)C)NC(=O)[C@H](Cc1ccccc1)NC(=O)[C@H](CS)NC(=O)[C@H](CC(=O)O)NC(=O)[C@@H](N)C(C)C)[C@@H](C)O)C(=O)N[C@@H](CCCCN)C(=O)N[C@H](C(=O)O)[C@@H](C)O (H-VDCFLSRPTC(Ethyl(2-decanoyloxy))KT-OH)	96%

Ask: Query (compound): CCCCCCCCCCCCCCCCCC(=O)OCCSCCC(=O)N[C@H](C(=O)N[C@@H](CC(=O)O)C(=O)N[C@@H](CS)C(=O)N[C@@H](Cc1ccccc1)C(=O)N[C@@H](CC(C)C)C(=O)N[C@@H](CO)C(=O)N[C@@H](CCCNC(=N)N)C(=O)N1CCC[C@H]1C(=O)N[C@H](C(=O)N[C@@H](CCC(=O)O)C(=O)N[C@@H](CCCCN)C(=O)N[C@H](C(=O)O)[C@@H](C)O)[C@@H](C)O)C(C)C ([Mpa](Ethyl(2-stearoyloxy))VDCFLSRPTEKT-OH) ; field requested: Activity
Result: inactive

Ask: Try the compound CC(C)C[C@H](NC(=O)[C@H](Cc1ccccc1)NC(=O)[C@H](CS)NC(=O)[C@H](CC(=O)O)NC(=O)[C@@H](N)C(C)C)C(=O)N[C@@H](CSCCOC(=O)C(C)(C)C)C(=O)N[C@@H](CCCNC(=N)N)C(=O)N1CCC[C@H]1C(=O)N[C@H](C(=O)N[C@@H](CCC(=O)O)C(=O)N[C@@H](CCCCN)C(=O)N[C@H](C(=O)O)[C@@H](C)O)[C@@H](C)O (H-VDCFLC(Ethyl(2-OPiv))RPTEKT-OH)
Result: inactive

Numbers sourced from ChEMBL document CHEMBL4673184.
